# Tested on: A549
# assayComment: Cytotoxicity against human A549 cells at 10 uM after 48 hrs by SRB assay
# Assay type: functional
# testContext: A549, 48 h

{"columns": ["compoundSmiles", "experimentalSystem", "unit", "inhibition at 10 µM"],
 "data": [
  ["COc1cccc2c1C(=O)c1c(O)c3c(c(O)c1C2=O)C[C@@](O)(C(=O)CO)C[C@@H]3O[C@H]1C[C@H](N)[C@H](O)[C@H](C)O1", "A549", "%", 69],
  ["CCn1c2ccccc2c2ccnc(/C=C/C(=O)c3ccc(C)cc3)c21", "A549", "%", 16.4],
  ["Cc1ccc(C(=O)/C=C/c2nccc3c4ccccc4n(C)c23)cc1", "A549", "%", 13.2],
  ["O=C(/C=C/c1nccc2c1[nH]c1ccccc12)c1ccc(Br)cc1", "A549", "%", 9.19],
  ["COc1ccc(C(=O)/C=C/c2nccc3c2[nH]c2ccccc23)cc1", "A549", "%", 29.2]
]}
